# ASSAY NOTES: BET inhibitor-based combinations targeting novel dependencies in MECOM-rearranged (r) AML: SET-2 cell line (AID 2202231);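 note: plate controls were DMSO treated cells for no effect and wells without cells for full effect; nearly all actives have a fitted effect of over 35% in size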
# PARTICULARS: SET-2 AML cells viability, CellTiter-Glo luminescence, 48 h; hits give low values, series mostly up to about 46 µM
Inconclusive results are not listed.
Listed below: viability values for each entry.

>  <COMPOUND>
CCC(C)n1ncn(-c2ccc(N3CCN(c4ccc(OC[C@H]5CO[C@](Cn6cncn6)(c6ccc(Cl)cc6Cl)O5)cc4)CC3)cc2)c1=O (some centres undefined)

>  <UNITS OF MEASURE>
%

>  <viability>
101

$$$$
>  <COMPOUND>
O=C(NC[C@H](O)CN1CCc2ccccc2C1)c1cc(NC2COC2)ncn1

>  <UNITS OF MEASURE>
%

>  <viability>
97

$$$$
>  <COMPOUND>
Cc1ccc(/C=N/NC(=O)c2ccccc2Oc2ccccc2)o1

>  <UNITS OF MEASURE>
%

>  <viability>
107

$$$$
>  <COMPOUND>
CCCCc1ccc(NS(=O)(=O)c2ccc(C)c(C(=O)N3CCN(c4cccc(C)c4C)CC3)c2)cc1

>  <UNITS OF MEASURE>
%

>  <viability>
94.4

$$$$
>  <COMPOUND>
Cc1ccc2nc(NC(=O)CSc3nc4c(c(=O)n3-c3ccccc3)SCC4)sc2c1

>  <UNITS OF MEASURE>
%

>  <viability>
114

$$$$
>  <COMPOUND>
O=C(c1ccc(C(=O)N2CCC(N3CCCC3)CC2)c(Nc2ccccc2)c1)N1CCC(N2CCCC2)CC1

>  <UNITS OF MEASURE>
%

>  <viability>
111

$$$$
>  <COMPOUND>
Cc1cc(NC(=O)Nc2ccc(N(C)C)cc2)c2cc(F)cc(F)c2n1

>  <UNITS OF MEASURE>
%

>  <viability>
94.3

$$$$
>  <COMPOUND>
COc1ccc(-c2coc3cc(O)cc(O)c3c2=O)cc1

>  <UNITS OF MEASURE>
%

>  <viability>
45.9

$$$$
>  <COMPOUND>
CO[C@@H]1COCC[C@@H]1N[C@@H]1CC[C@@](C(=O)N2CCc3ncc(C(F)(F)F)cc3C2)(C(C)C)C1

>  <UNITS OF MEASURE>
%

>  <viability>
122

$$$$
